Target: DYRK1A (Homo sapiens)
Construct: purchased Carna Biosciences, Inc. 04-130
Experiment: Inhibition test on activity of DYRK family, mobility shift assay (MSA): DYRK1A
Assay type: biochemical
Details: read-out: Inhibitory activity DYRK 1A
observed_property: IC50

Solved cases below.
# compound, observed_property, experimental_result
data = [
    ("O=C1N[C@@H]2CCOC[C@H]2N1c1nc2c3c(ccc2s1)OCC3 [Example 125]", "IC50", "10 to 100 nM"),
    ("N#CCN1CC[C@@H]2NC(=O)N(c3nc4c5c(ccc4s3)OCC5)[C@@H]2C1 (single isomer, unassigned) [Example 112]", "IC50", "< 10 nM"),
    ("O=C1N[C@H]2CN(C3CC3)C[C@H]2N1c1nc2c3c(ccc2s1)OCC3 [Example 101]", "IC50", "10 to 100 nM"),
]

Next, consider the following compound.
Reported IC50 of O=C1N[C@H]2COCC[C@H]2N1c1nc2c3c(ccc2s1)OCC3 [Example 122] : < 10 nM
